experiment: Cytotoxicity against Bos taurus (bovine) MDBK cells assessed as maximum non-toxic concentration; assay type: cell-based; conditions: cattle, read-out: MNCC

smiles structure | unit tag | MNTC
COc1ccc(N2CCN(Cc3oc(CCl)cc(=O)c3O)CC2)cc1 | µg/mL | 1.6
O=c1cc(CCl)oc(CN2CCN(c3ccc(Cl)c(Cl)c3)CC2)c1O | µg/mL | 1.6
O=c1cc(CCl)oc(CN2CCN(c3cccc(C(F)(F)F)c3)CC2)c1O | µg/mL | 0.8
O=c1cc(CCl)oc(CN2CCN(c3ccc(C(F)(F)F)cc3)CC2)c1O | µg/mL | 0.8
O=c1cc(CCl)oc(CN2CCN(c3ccccc3F)CC2)c1O | µg/mL | 0.8
COc1ccccc1N1CCN(Cc2oc(CCl)cc(=O)c2O)CC1 | µg/mL | 0.8
COc1cccc(N2CCN(Cc3oc(CCl)cc(=O)c3O)CC2)c1 | µg/mL | 0.8
O=c1cc(CCl)oc(CN2CCN(c3cccc(Cl)c3)CC2)c1O | µg/mL | 1.6
O=c1cc(CCl)oc(CN2CCN(c3ccc(Cl)cc3)CC2)c1O | µg/mL | 1.6
O=c1cc(CCl)oc(CN2CCN(c3ccccc3Cl)CC2)c1O | µg/mL | 1.6
O=c1cc(CCl)oc(CN2CCN(c3ccc(F)cc3)CC2)c1O | µg/mL | 0.8
